Data provenance: PubChem BioAssay (Tox21)

assay: qHTS assay to identify small molecule antagonists of the androgen receptor (AR) signaling pathway using the MDA cell line - cell viability counter screen (AID 743041; further: nearly all actives have a fitted effect of over 45% in size); settings: MDA-kb2 viability, CellTiter-Fluor, 16 h, cells co-treated with R1881 androgen agonist; series mostly up to 70.3 µM
Results filed as inconclusive are left out. The source made the active and inactive calls. The call rests on the fitted dose curve; in most records, active means well fitted cell-killing curve with a large enough effect in the repeat runs; inconclusive means weak or mixed curves, or effect the other way; inactive means flat fitted curve, though single readings scatter.

structure_smiles	outcome
CCCCCCc1ccc(N)cc1	inactive
CCCCCCCCCC(=O)OCC	inactive
FC(F)(F)C(F)(F)C(F)(F)C(F)(F)C(F)(F)C(F)(F)CCI	inactive

* * *

assay: qHTS assay for identifying genotoxic compounds that show differential cytotoxicity against isogenic chicken DT40 cell lines with known DNA damage response pathways - Rev3 mutant cell line (AID 743014); conditions: chicken DT40 Rev3-/- viability, CellTiter-Glo, 40 h; series mostly up to 68.4 µM; further: nearly all actives have a fitted effect of over 55% in size
Records with an inconclusive call do not appear. The source made the active and inactive calls. The call rests on the fitted dose curve; in most records, active means well fitted cell-killing curve with a large enough effect in the repeat runs; inconclusive means weak or mixed curves, or effect the other way; inactive means no such curve, though single readings can be large or run the other way.
Lab note: assign the record to one of active, inactive

Look over these answered cases.
molecule	cat
CC(=O)SCc1ccco1	inactive
CCOc1nc2cccc(C(=O)O)c2n1Cc1ccc(-c2ccccc2-c2nn[nH]n2)cc1	inactive
CCCCCCCCCCCCCCCC(=O)OC/C=C(C)/C=C/C=C(C)/C=C/C1=C(C)CCCC1(C)C	inactive
SC1CCCC1	inactive
Cc1cc(CC(=O)O)c(C)n1-c1ccc(Cl)cc1	active

-- ask Recorded call for CN(C)CC/C=C1\c2ccccc2COc2ccccc21 ?
-- reply active

-- ask Recorded call for O=C(NN1CCCC1)NS(=O)(=O)c1ccc(Cl)cc1 ?
-- reply inactive

-- ask Recorded call for NCCCOCCOCCOCCCN ?
-- reply active

-- ask Recorded call for NC(N)=NN=C(/C=C/c1ccc([N+](=O)[O-])o1)/C=C/c1ccc([N+](=O)[O-])o1 ?
-- reply active

-- ask Recorded call for CCCCCCCCCC(=O)OCC ?
-- reply inactive

-- ask Recorded call for Cc1nc2ccccc2n1Cc1ccc(Cl)cc1 ?
-- reply active

-- ask Recorded call for C1=Cc2ccccc2C1 ?
-- reply inactive

* * *

assay: qHTS assay to identify small molecule antagonists of the constitutive androstane receptor (CAR) signaling pathway - cell viability counter screen (AID 1224837); conditions: HepG2-CYP2B6-hCAR viability, CellTiter-Fluor, 23 h, co-treated with 50 nM CITCO; series mostly up to 92.4 µM; further: nearly all actives have a fitted effect of over 45% in size
Records with an inconclusive call do not appear. Calls of active or inactive are those of the source. The call rests on the fitted dose curve; in most records, active means well fitted cell-killing curve with a large enough effect in the repeat runs; inconclusive means weak or mixed curves, or effect the other way; inactive means flat fitted curve, though single readings scatter.
Lab note: assign the record to one of true (1) for active, false (0) for inactive

compound	cat
O=[N+]([O-])c1cccc(Cl)c1Cl	false (0)
CC(=O)OC/C=C/c1ccccc1	false (0)
NC(N)=N/N=C/c1c(Cl)cccc1Cl	true (1)
Nc1cnn([C@@H]2O[C@H](CO)[C@@H](O)[C@H]2O)c(=O)n1	false (0)
COc1ccc([C@@H]2Sc3ccccc3N(CCN(C)C)C(=O)[C@@H]2OC(C)=O)cc1	false (0)

-- ask Recorded call for CCN(CC)C(C)CN1c2ccccc2Sc2ccccc21 (centres undefined) ?
-- reply false (0)

-- ask Recorded call for CCCCCC(CO)CCC (centres undefined) ?
-- reply false (0)

-- ask Recorded call for O=C(O)c1cccc(N(Cc2cccnc2)c2ccc(OC(F)F)c(OC(F)F)c2)c1 ?
-- reply false (0)

* * *

Assay: A CellTox Green Cytotoxicity Assay to monitor cytotoxicity in HepG2 cells - 32 hour (AID 1224883); further: nearly all actives have a fitted effect of over 50% in size
Settings: CellTox Green fluorescence; series mostly up to 76.8 µM
Description: National Center for Advancing Translational Sciences [NCATS] NIH Chemical Genomics Center [NCGC] U.S. Environmental Protection Agency [EPA] National Institutes of Environmental Health Sciences [NIEHS] National Toxicology Program [NTP] Cell-based models are critical for drug discovery. […] Viable cells produce no appreciable increases in fluorescence. Therefore, the fluorescence signal produced by the binding interaction with dead cell DNA is proportional to cytotoxicity. […]
Inconclusive results are not listed. Activity calls are given as the source filed them. Calls come from the whole dose curve; as a rule, active = well fitted activation curve with a large enough effect in the repeat runs; inconclusive = weak or mixed curves; inactive = flat fitted curve, though single readings scatter.
Lab note: assign the record to one of active, inactive

Look over these answered cases.
molecule	cat
CC(C)c1ccccc1C(C)C	inactive
Nc1cnn([C@@H]2O[C@H](CO)[C@@H](O)[C@H]2O)c(=O)n1	inactive
O=c1c2ccccc2nnn1CCl	inactive
O=C1CCCCCO1	inactive

Now look at this one.
-- ask Recorded call for O=C(O)C(c1ccc(Cl)cc1)c1ccc(Cl)cc1 ?
-- reply inactive
